Cited source for all entries: patent US12102648B2

# TEST SUMMARY: in vitro
# Type: in vitro ADME
# ASSAY CONDITIONS: human, Caco-2
Papp A→B at 90 min below 4 nm/s gives N; Papp A→B at 90 min at or above it gives Y.

API: above_or_equal(metric=Papp A→B at 90 min, cutoff=4 nm/s) for item CNc1nc(N)nc2c1ncn2[C@@H]1O[C@H](COC(=O)CC(C)C)[C@@H](OC(=O)CC(C)C)[C@@]1(C)F
Y

API: above_or_equal(metric=Papp A→B at 90 min, cutoff=4 nm/s) for item CC(C)[C@H](N)C(=O)Nc1ncnn2c([C@]3(C#N)O[C@H](CO)[C@@H](O)[C@H]3O)ccc12
N

API: above_or_equal(metric=Papp A→B at 90 min, cutoff=4 nm/s) for item CCCCC(=O)Nc1ncnn2c([C@]3(C#N)O[C@H](CO)[C@@H](O)[C@H]3O)ccc12
N

API: above_or_equal(metric=Papp A→B at 90 min, cutoff=4 nm/s) for item N#C[C@@]1(c2ccc3c(N)ncnn23)O[C@H](COC(=O)CC2CCC3(CCCC3)CC2)[C@@H](O)[C@H]1O
Y

API: above_or_equal(metric=Papp A→B at 90 min, cutoff=4 nm/s) for item CC(C)[C@H](N)C(=O)OC[C@H]1O[C@@](C#N)(c2ccc3c(N)ncnn23)[C@H](O)[C@@H]1OC(=O)CC1CCCCC1
Y

API: above_or_equal(metric=Papp A→B at 90 min, cutoff=4 nm/s) for item CC(=O)OC[C@H]1O[C@@](C#N)(c2ccc3c(N)ncnn23)[C@H](O)[C@@H]1OC(=O)CC1CCCCC1
Y

API: above_or_equal(metric=Papp A→B at 90 min, cutoff=4 nm/s) for item CNc1nc(NC(=O)CC(C)C)nc2c1ncn2[C@@H]1O[C@H](COC(C)=O)[C@@H](OC(=O)CC(C)C)[C@@]1(C)F
Y

API: above_or_equal(metric=Papp A→B at 90 min, cutoff=4 nm/s) for item CC(C)(C)[C@H](N)C(=O)OC[C@H]1O[C@@](C#N)(c2ccc3c(N)ncnn23)[C@H](O)[C@@H]1O
Y

API: above_or_equal(metric=Papp A→B at 90 min, cutoff=4 nm/s) for item CC(=O)O[C@H]1[C@@H](O)[C@](C#N)(c2ccc3c(N)ncnn23)O[C@@H]1COC(=O)CC1CCCCC1
Y

API: above_or_equal(metric=Papp A→B at 90 min, cutoff=4 nm/s) for item CCC(=O)O[C@@H]1[C@@H](COC(=O)C(C)C)O[C@@H](n2cnc3c(NC)nc(N)nc32)[C@]1(C)F
Y

API: above_or_equal(metric=Papp A→B at 90 min, cutoff=4 nm/s) for item CC(=O)OCOC(=O)Nc1ncnn2c([C@]3(C#N)O[C@H](COC(=O)CC4(N)CCCCC4)[C@@H](O)[C@H]3O)ccc12
N

API: above_or_equal(metric=Papp A→B at 90 min, cutoff=4 nm/s) for item CC(C)[C@H](N)C(=O)OC[C@H]1O[C@@](C#N)(c2ccc3c(NC(=O)c4ccccc4)ncnn23)[C@H](O)[C@@H]1O
N

API: above_or_equal(metric=Papp A→B at 90 min, cutoff=4 nm/s) for item N#C[C@@]1(c2ccc3c(NC(=O)c4ccccc4)ncnn23)O[C@H](CO)[C@@H](O)[C@H]1O
N

API: above_or_equal(metric=Papp A→B at 90 min, cutoff=4 nm/s) for item CCCC(=O)Nc1ncnn2c([C@]3(C#N)O[C@H](COC(=O)CC4CCCCC4)[C@@H](OC(=O)[C@@H](N)C(C)C)[C@H]3O)ccc12
Y

API: above_or_equal(metric=Papp A→B at 90 min, cutoff=4 nm/s) for item CC(C)(C)C(=O)OCOC(=O)Nc1ncnn2c([C@]3(C#N)O[C@H](COC(=O)C(C)(C)C4CCCCC4)[C@@H](O)[C@H]3O)ccc12
N

API: above_or_equal(metric=Papp A→B at 90 min, cutoff=4 nm/s) for item CCCCCOC(=O)Nc1ncnn2c([C@]3(C#N)O[C@H](COC(C)=O)[C@@H](O)[C@H]3O)ccc12
Y

API: above_or_equal(metric=Papp A→B at 90 min, cutoff=4 nm/s) for item CCCCCOC(=O)Nc1ncnn2c([C@]3(C#N)O[C@H](COC(=O)C(C)C)[C@@H](O)[C@H]3O)ccc12
Y

API: above_or_equal(metric=Papp A→B at 90 min, cutoff=4 nm/s) for item N#C[C@@]1(c2ccc3c(NC(=O)[C@@H](N)Cc4ccc(F)cc4)ncnn23)O[C@H](CO)[C@@H](OC(=O)CC2CCCCC2)[C@H]1O
Y

API: above_or_equal(metric=Papp A→B at 90 min, cutoff=4 nm/s) for item CC(C)C(=O)OC[C@H]1O[C@@](C#N)(c2ccc3c(N)ncnn23)[C@H](O)[C@@H]1OCOC(=O)C(C)(C)C
Y

API: above_or_equal(metric=Papp A→B at 90 min, cutoff=4 nm/s) for item CC(=O)Nc1ncnn2c([C@]3(C#N)O[C@H](COC(=O)CC4CCCCC4)[C@@H](OC(=O)[C@@H](N)C(C)C)[C@H]3O)ccc12
Y

API: above_or_equal(metric=Papp A→B at 90 min, cutoff=4 nm/s) for item CCCCCOC(=O)Nc1ncnn2c([C@]3(C#N)O[C@H](COC(=O)CC(C)C)[C@@H](O)[C@H]3O)ccc12
Y

API: above_or_equal(metric=Papp A→B at 90 min, cutoff=4 nm/s) for item CCC(=O)O[C@H]1[C@@H](O)[C@](C#N)(c2ccc3c(N)ncnn23)O[C@@H]1COC(=O)CC(C)C
Y

API: above_or_equal(metric=Papp A→B at 90 min, cutoff=4 nm/s) for item CNc1nc(NC(=O)CC2CCCCC2)nc2c1ncn2[C@@H]1O[C@H](COC(=O)CC2CCCCC2)[C@@H](O)[C@@]1(C)F
Y

API: above_or_equal(metric=Papp A→B at 90 min, cutoff=4 nm/s) for item CCC(=O)O[C@H]1[C@@H](O)[C@](C#N)(c2ccc3c(N)ncnn23)O[C@@H]1COC(=O)CC1CCCCC1
Y

API: above_or_equal(metric=Papp A→B at 90 min, cutoff=4 nm/s) for item CC(C)[C@H](N)C(=O)O[C@H]1[C@@H](O)[C@](C#N)(c2ccc3c(NC(=O)c4ccccc4)ncnn23)O[C@@H]1CO
N

API: above_or_equal(metric=Papp A→B at 90 min, cutoff=4 nm/s) for item N#C[C@@]1(c2ccc3c(N)ncnn23)O[C@H](COC(=O)CC2CCC2)[C@@H](O)[C@H]1O
N
